Study target: cGMP-dependent protein kinase 2 (Homo sapiens);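 further: reported figure is a mean inhibition value against PRKG2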
Study conditions: at 0.1 µM
Observable: inhibition (%)
Give just the number in %; leave the unit off.

Some solved entries appear below for comparison.
1. COc1cc2c(cc1Nc1nc(Nc3ccsc3C(N)=O)c3cc[nH]c3n1)N(C(=O)CN(C)C)CCC2    0.12
2. CCn1c(-c2nonc2N)nc2c(C#CC(C)(C)O)ncc(OCC3CCNCC3)c21    35.4
3. COc1cccc(-n2ncc3c(N/N=C/c4ccncc4)ncnc32)c1    1.96
4. CCn1c(-c2nonc2N)nc2c(C#CC(C)(C)O)nc(O[C@@H](CN)c3ccccc3)cc21    67.9
5. CCn1c(-c2nonc2N)nc2c(C#CC(C)(C)O)ncc(OC[C@@H]3CCCN3)c21    65.7
6. Cc1cc(-c2ccco2)cc(C)c1/C=C/c1cncc(-c2nn[nH]n2)c1    0.23
7. NS(=O)(=O)c1ccc(N/C=C2\C(=O)Nc3ccc4ncsc4c32)cc1    9.85
8. Nc1nonc1-c1nc2cnccc2n1C1CCCCC1    41.1
9. CCn1c(-c2nonc2N)nc2c(C#CCN)ncc(OCCCN)c21    37.1

Now consider a different compound.
Record Fc1ccc(-c2ncn(C3CCNCC3)c2-c2ccnc(Oc3ccccc3)n2)cc1 . Reported inhibition: 0.69
